Target System: MET (Homo sapiens, UniProt P08581)
Construct: endogenous in cells
Sequence (P08581 25-1390): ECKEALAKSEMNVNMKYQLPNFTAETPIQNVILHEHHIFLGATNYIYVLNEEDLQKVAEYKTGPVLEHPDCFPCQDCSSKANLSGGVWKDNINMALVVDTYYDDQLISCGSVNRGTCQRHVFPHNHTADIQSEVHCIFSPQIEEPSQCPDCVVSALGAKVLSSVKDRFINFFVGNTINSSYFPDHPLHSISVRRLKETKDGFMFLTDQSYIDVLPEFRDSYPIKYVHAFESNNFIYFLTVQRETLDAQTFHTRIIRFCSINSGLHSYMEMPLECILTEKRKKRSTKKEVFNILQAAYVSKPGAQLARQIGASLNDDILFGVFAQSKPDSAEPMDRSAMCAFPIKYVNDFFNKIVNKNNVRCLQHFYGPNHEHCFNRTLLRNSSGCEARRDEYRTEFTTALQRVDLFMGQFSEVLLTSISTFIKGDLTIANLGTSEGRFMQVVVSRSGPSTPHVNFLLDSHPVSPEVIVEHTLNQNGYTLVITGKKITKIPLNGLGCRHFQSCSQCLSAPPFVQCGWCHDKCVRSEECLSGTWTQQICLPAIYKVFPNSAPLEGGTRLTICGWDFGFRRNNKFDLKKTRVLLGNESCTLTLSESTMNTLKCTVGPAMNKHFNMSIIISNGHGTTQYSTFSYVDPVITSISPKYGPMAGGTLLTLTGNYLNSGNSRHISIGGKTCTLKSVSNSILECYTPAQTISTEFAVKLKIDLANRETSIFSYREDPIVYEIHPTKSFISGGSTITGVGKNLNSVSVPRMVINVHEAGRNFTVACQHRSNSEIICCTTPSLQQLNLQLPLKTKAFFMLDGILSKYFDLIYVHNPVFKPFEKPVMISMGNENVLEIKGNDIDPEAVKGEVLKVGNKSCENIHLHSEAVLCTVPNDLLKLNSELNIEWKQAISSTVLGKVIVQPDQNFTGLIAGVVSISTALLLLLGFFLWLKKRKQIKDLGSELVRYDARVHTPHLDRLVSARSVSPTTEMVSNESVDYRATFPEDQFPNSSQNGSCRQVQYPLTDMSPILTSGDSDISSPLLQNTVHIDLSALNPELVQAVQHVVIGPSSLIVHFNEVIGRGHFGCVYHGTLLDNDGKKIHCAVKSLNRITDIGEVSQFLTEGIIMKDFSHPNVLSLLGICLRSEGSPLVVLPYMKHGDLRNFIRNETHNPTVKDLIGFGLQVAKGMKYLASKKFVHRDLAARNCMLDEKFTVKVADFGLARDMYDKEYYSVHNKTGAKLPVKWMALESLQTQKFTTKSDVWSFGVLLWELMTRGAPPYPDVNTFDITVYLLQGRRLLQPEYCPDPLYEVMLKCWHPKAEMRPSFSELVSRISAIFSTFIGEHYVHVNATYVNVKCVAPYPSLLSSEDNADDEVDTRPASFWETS
Test Details: MET cell mechanistic assay (MKN45), phosphorylated MET levels
Cond: MKN45 cell line, four hours incubation, at least duplicate experiments, read-out: MET mech IC50
Experimental Readout: IC50

Some solved cases for reference:
INSERT INTO measurements (molecule, result) VALUES
  ('CC(c1c(Cl)ccc(F)c1Cl)c1c[nH]c2ncc(-c3cnn(C4CCNCC4)c3)nc12 (stereo not drawn) [Example 2]', '100 to 500 nM'),
  ('CC(c1c(Cl)ccc(F)c1Cl)c1c[nH]c2ncc(-c3cnn(C4CCN(C=O)CC4)c3)nc12 (stereo not drawn) [Example 3]', '100 to 500 nM');

Query (molecule): CC(c1c(Cl)ccc(F)c1Cl)c1c[nH]c2nnc(-c3cnn(C4CCNCC4)c3)cc12 (stereo not drawn) [Example 16] ; field requested: IC50
> 2000 nM

----------
Target System: sfRON (Homo sapiens, UniProt Q04912)
Sequence (Q04912 913-1400 limits assumed): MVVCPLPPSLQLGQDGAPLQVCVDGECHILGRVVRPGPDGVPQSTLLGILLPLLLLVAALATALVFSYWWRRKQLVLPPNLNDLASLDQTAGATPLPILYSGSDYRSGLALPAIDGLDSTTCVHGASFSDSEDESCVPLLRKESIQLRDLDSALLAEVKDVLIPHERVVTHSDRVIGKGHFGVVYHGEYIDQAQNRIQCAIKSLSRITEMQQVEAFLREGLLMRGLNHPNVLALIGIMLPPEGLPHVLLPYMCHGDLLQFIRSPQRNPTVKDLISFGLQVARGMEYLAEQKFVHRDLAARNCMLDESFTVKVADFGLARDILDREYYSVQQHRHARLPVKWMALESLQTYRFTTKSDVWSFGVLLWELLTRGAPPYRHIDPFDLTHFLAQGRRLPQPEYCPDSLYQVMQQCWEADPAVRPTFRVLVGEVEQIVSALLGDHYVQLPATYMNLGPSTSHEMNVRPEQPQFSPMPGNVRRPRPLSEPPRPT
Test Details: sfRON cell mechanistic assay (HeLa), phosphorylated RON levels
Cond: sfRON transfected HeLa cells, four hours incubation, at least duplicate experiments, read-out: sfRON mech IC50
Experimental: The cellular activity of the compounds of the present invention against RON may be determined by the following procedure. […] The phosphorylated RON levels were measured by incubating with a Goat polyclonal antibody against phosphorylated RON ([pYpY1238/1239]) followed by an anti-Goat antibody conjugated to HRP. Signal was measured on a Wallac Victor plate reader with luminance. […] IC50 values were determined from the percent of control data using a standard four-parameter model. […]
// reported IC50 per item

INSERT INTO measurements (line_notation, result) VALUES
  ('COc1ccc(F)c(Cl)c1[C@@H](C)c1n[nH]c2ncc(-c3cnn([C@H]4CC[C@H](O)CC4)c3)cc12', '100 to 500 nM'),
  ('C[C@H](c1c(Cl)ccc(F)c1Cl)n1ccc2ncc(-c3cnn(C[C@H](O)CO)c3)cc21', '500 to 1000 nM'),
  ('C[C@H](c1c(Cl)ccc(F)c1Cl)n1ccc2ncc(-c3cnn(C)c3)cc21', '> 1000 nM'),
  ('C[C@H](c1c(Cl)ccc(F)c1Cl)n1ccc2ncc(-c3cnn(C4CCNCC4)c3)cc21', '500 to 1000 nM'),
  ('C[C@H](c1c(Cl)ccc(F)c1Cl)n1ccc2ncc(-c3cnn(C4CCN(C=O)CC4)c3)cc21', '500 to 1000 nM');

What does the data say about its IC50? Entry: "C[C@H](c1c(Cl)ccc(F)c1Cl)n1ccc2ncc(-c3cnn([C@H]4CC[C@H](O)CC4)c3)cc21"
100 to 500 nM
